target: 1632 (Homo sapiens, UniProt P11712, C216Y/E288V/F295L/I215V/I222L/I223L/I99H/K206E/N289I/P221A/S220P/S286N/V292A); construct: is residue 30 (all numbering is in relation to the full length protein), and the last residue is residue 490; test: Inhibition assay on 2C9-2C19 chimera (Table 17); conditions: chimera 1632, Table 17
Sequence (P11712 30-490 I99H/K206E/I215V/C216Y/S220P/P221A/I222L/I223L/S286N/E288V/N289I/V292A/F295L): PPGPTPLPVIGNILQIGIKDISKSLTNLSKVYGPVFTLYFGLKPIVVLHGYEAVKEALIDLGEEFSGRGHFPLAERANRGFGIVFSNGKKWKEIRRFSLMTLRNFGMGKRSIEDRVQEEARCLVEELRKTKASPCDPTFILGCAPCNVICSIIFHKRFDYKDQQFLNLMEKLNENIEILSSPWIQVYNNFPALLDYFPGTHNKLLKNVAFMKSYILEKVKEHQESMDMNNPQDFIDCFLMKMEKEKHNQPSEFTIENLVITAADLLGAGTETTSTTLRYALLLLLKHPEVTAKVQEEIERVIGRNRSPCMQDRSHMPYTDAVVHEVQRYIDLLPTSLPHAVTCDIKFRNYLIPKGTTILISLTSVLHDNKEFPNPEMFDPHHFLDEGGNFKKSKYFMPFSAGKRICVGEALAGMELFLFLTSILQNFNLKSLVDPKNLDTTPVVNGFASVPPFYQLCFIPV
property name: pKi
Field pKi (float): negative decimal logarithm of the concentration in molar.

Q: Look up pKi: COCCCC/C(=N\OCCN)c1ccc(C(F)(F)F)cc1
Ans: 5.80

====

Below are compounds with their Ki as measured on UniProt P11712.
Report only the number, with the unit nM understood.

Reference set, count: 2
| compound | unit tag | Ki |
| --- | --- | --- |
| CC(C)(c1ccc(O)cc1)c1ccc(O)cc1 [Bisphenol A] | nM | 2900 |
| COCCCC/C(=N\OCCN)c1ccc(C(F)(F)F)cc1 [Fluvoxamine] | nM | 700 |

Q: Look up Ki: CNCCC(Oc1ccc(C(F)(F)F)cc1)c1ccccc1 (stereo not drawn) [Fluoxetine]
Ans: 1500

====

molecular target: 1661 (Homo sapiens, UniProt P11712, C216Y/I215V/I222L/I223L/I99H/K206E/N289I/P221A/S220P/S286N); construct: is residue 30 (all numbering is in relation to the full length protein), and the last residue is residue 490; assay: Inhibition assay on 2C9-2C19 chimera (Table 17); details: chimera 1661, Table 17
Sequence (P11712 30-490 I99H/K206E/I215V/C216Y/S220P/P221A/I222L/I223L/S286N/N289I): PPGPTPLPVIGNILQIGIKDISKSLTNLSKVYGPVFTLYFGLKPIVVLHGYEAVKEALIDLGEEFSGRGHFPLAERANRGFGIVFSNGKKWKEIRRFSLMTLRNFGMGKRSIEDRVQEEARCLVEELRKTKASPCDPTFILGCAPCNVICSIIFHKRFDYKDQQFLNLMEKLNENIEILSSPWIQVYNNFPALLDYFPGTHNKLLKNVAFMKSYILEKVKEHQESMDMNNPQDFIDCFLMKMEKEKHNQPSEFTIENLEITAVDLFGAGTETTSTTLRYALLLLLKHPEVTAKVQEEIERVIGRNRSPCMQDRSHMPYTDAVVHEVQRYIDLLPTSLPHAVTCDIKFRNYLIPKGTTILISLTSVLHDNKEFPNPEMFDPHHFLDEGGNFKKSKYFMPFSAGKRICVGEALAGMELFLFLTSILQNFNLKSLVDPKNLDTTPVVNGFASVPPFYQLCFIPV
property name: pKi
Field pKi (float): negative decimal logarithm of the concentration in molar.

Q: Look up pKi: COCCCC/C(=N\OCCN)c1ccc(C(F)(F)F)cc1
Ans: 6.30

====

target: 2C9-FGloop K206E (Homo sapiens, UniProt P11712, C216Y/I215V/I222L/I223L/K206E/P221A/S220P); assay: biochemical
Sequence (P11712 30-490 K206E/I215V/C216Y/S220P/P221A/I222L/I223L): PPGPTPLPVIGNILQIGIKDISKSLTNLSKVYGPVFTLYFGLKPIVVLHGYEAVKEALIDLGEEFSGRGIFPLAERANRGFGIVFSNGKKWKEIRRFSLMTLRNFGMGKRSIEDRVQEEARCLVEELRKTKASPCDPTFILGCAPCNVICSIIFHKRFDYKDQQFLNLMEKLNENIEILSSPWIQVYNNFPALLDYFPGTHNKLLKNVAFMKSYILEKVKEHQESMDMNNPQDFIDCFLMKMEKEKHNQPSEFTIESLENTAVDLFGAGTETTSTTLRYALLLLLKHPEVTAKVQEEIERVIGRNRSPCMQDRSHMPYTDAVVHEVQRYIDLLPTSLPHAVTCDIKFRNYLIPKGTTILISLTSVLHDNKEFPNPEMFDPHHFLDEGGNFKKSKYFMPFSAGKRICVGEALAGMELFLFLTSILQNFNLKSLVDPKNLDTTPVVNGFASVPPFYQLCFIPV
This listing pairs molecules with measured IC50.
Report only the number, with the unit nM understood.

Reference set, count: 2
| molecule | assayed system | IC50 [nM] |
| --- | --- | --- |
| CNCCC(Oc1ccc(C(F)(F)F)cc1)c1ccccc1 (stereo not drawn) | 2C9-FGloop K206E (Homo sapiens, UniProt P11712, C216Y/I215V/I222L/I223L/K206E/P221A/S220P) | 2100 |
| COCCCC/C(=N\OCCN)c1ccc(C(F)(F)F)cc1 | 2C9-FGloop K206E (Homo sapiens, UniProt P11712, C216Y/I215V/I222L/I223L/K206E/P221A/S220P) | 400 |

Let's switch to this molecule now.
Q: Look up IC50: CC(C)(c1ccc(O)cc1)c1ccc(O)cc1
Ans: 7800

====

target: 1155 (Homo sapiens, UniProt P11712, C216Y/I215V/I222L/I223L/K206E/P221A/S220P); construct: is residue 30 (all numbering is in relation to the full length protein), and the last residue is residue 490; experiment: Inhibition assay with substrates/inhibitors of 2C19 and 2C9 (Table 17); settings: protein 1155, Table 17
property name: pKi
Field pKi (float): negative decimal logarithm of the concentration in molar.

| sample smiles | pKi |
| --- | --- |
| CN1C(C(=O)Nc2ccccn2)=C(O)c2ccccc2S1(=O)=O | 4.52 |

Q: Look up pKi: COCCCC/C(=N\OCCN)c1ccc(C(F)(F)F)cc1
Ans: 6.40

====

This listing pairs compounds with measured pIC50.
target: 2C9trunc (Homo sapiens)
Sequence (P11712 30-490): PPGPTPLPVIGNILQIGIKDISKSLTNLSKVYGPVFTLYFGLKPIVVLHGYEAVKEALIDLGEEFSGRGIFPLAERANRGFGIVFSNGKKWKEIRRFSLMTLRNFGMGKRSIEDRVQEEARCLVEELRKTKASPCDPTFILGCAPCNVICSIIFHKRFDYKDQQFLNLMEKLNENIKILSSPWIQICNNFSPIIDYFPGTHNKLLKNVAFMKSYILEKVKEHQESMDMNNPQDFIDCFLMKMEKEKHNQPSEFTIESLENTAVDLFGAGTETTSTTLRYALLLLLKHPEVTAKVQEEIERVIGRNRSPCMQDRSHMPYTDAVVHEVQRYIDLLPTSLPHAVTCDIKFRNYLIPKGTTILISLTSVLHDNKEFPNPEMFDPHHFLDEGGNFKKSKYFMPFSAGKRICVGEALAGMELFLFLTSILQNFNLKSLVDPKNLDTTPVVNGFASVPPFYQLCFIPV
Field pIC50 (float): negative decimal logarithm of the concentration in molar.

Reference set, count: 2
| compound | pIC50 |
| --- | --- |
| CC(C)(c1ccc(O)cc1)c1ccc(O)cc1 | 5.32 |
| CNCCC(Oc1ccc(C(F)(F)F)cc1)c1ccccc1 (stereo not drawn) | 5.82 |

Q: Look up pIC50: COCCCC/C(=N\OCCN)c1ccc(C(F)(F)F)cc1
Ans: 6.22

====

target: 1600 (Homo sapiens, UniProt P11712, C216Y/E288V/F295L/I215V/I222L/I223L/I331V/I99H/K206E/L362I/N289I/P221A/S220P/S286N/V292A); construct: is residue 30 (all numbering is in relation to the full length protein), and the last residue is residue 490; assay: Inhibition assay on 2C9-2C19 chimera (Table 17); conditions: chimera 1600, Table 17
Sequence (P11712 30-490 I99H/K206E/I215V/C216Y/S220P/P221A/I222L/I223L/S286N/E288V/N289I/V292A/F295L/I331V/L362I): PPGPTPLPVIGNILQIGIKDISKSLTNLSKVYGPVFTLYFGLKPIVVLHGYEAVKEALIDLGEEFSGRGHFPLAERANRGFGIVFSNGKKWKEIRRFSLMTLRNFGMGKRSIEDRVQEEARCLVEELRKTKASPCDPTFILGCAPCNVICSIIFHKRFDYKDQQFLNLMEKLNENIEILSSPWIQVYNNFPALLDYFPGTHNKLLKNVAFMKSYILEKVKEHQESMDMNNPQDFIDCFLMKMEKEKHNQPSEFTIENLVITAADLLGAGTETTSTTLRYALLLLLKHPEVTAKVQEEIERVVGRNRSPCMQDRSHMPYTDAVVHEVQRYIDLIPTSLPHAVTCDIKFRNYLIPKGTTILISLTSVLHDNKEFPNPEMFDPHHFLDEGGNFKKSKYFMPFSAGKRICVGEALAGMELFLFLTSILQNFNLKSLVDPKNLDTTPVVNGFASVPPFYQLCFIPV
This listing pairs compounds with measured Ki.

| sample smiles | Ki |
| --- | --- |
| CN1C(C(=O)Nc2ccccn2)=C(O)c2ccccc2S1(=O)=O | > 100 µM |

Let's switch to this compound now.
Q: Look up Ki: COCCCC/C(=N\OCCN)c1ccc(C(F)(F)F)cc1
Ans: < 1 µM
